- Tested Target: T1, TNFR1 (Homo sapiens, UniProt P19438)
- T1 chain: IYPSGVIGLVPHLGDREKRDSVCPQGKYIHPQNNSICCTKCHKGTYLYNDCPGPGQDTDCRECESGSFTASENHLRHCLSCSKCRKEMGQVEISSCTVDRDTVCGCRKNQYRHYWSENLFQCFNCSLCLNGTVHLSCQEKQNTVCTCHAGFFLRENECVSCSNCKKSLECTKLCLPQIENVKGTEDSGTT
- Assay Overview: yeast display SC50
Readout Kind: apparent Kd (screen) (nM)

[
  {
    "Binder": "D40W (designed binder) MTLQELLREEALRRAEAEAFRYALELLAEKFPEQKEYLLWLAEEIESQIRSLSGVDVEDVRKFLDKEWAWVKELLAEHPAELAEVEAARAARLAELRAEVEAKVAA",
    "Readout Kind": "apparent Kd (screen)",
    "Unit Info": "nM",
    "Reading": 0.49
  },
  {
    "Binder": "L64Y (designed binder) MTLQELLREEALRRAEAEAFRYALELLAEKFPEQKEYLLDLAEEIESQIRSLSGVDVEDVRKFYDKEWAWVKELLAEHPAELAEVEAARAARLAELRAEVEAKVAA",
    "Readout Kind": "apparent Kd (screen)",
    "Unit Info": "nM",
    "Reading": 0.49
  },
  {
    "Binder": "A105N (designed binder) MTLQELLREEALRRAEAEAFRYALELLAEKFPEQKEYLLDLAEEIESQIRSLSGVDVEDVRKFLDKEWAWVKELLAEHPAELAEVEAARAARLAELRAEVEAKVNA",
    "Readout Kind": "apparent Kd (screen)",
    "Unit Info": "nM",
    "Reading": 0.593
  },
  {
    "Binder": "A11V (designed binder) MTLQELLREEVLRRAEAEAFRYALELLAEKFPEQKEYLLDLAEEIESQIRSLSGVDVEDVRKFLDKEWAWVKELLAEHPAELAEVEAARAARLAELRAEVEAKVAA",
    "Readout Kind": "apparent Kd (screen)",
    "Unit Info": "nM",
    "Reading": 0.49
  },
  {
    "Binder": "A17C (designed binder) MTLQELLREEALRRAECEAFRYALELLAEKFPEQKEYLLDLAEEIESQIRSLSGVDVEDVRKFLDKEWAWVKELLAEHPAELAEVEAARAARLAELRAEVEAKVAA",
    "Readout Kind": "apparent Kd (screen)",
    "Unit Info": "nM",
    "Reading": 0.446
  },
  {
    "Binder": "A76K (designed binder) MTLQELLREEALRRAEAEAFRYALELLAEKFPEQKEYLLDLAEEIESQIRSLSGVDVEDVRKFLDKEWAWVKELLKEHPAELAEVEAARAARLAELRAEVEAKVAA",
    "Readout Kind": "apparent Kd (screen)",
    "Unit Info": "nM",
    "Reading": 0.718
  }
]

(P) A94E (designed binder) MTLQELLREEALRRAEAEAFRYALELLAEKFPEQKEYLLDLAEEIESQIRSLSGVDVEDVRKFLDKEWAWVKELLAEHPAELAEVEAARAARLEELRAEVEAKVAA
(Q) A106D (designed binder) MTLQELLREEALRRAEAEAFRYALELLAEKFPEQKEYLLDLAEEIESQIRSLSGVDVEDVRKFLDKEWAWVKELLAEHPAELAEVEAARAARLAELRAEVEAKVAD
Please indicate which entry, P or Q , has the lower recorded apparent Kd (screen) value. Field: selected label. Fill in the label of the entry you choose.
P
(P: 0.539 nM, Q: 1.05 nM)
